Target: T1, recombinant human FasR (Homo sapiens, UniProt P25445)
T1 construct: Fas receptor (FasR, CD95), human, recombinant; The FasR of the BLI and SPR experiments; Details are in Supplementary Protocols 8-10; also called recombinant FasR
T1 sequence (P25445 26-335): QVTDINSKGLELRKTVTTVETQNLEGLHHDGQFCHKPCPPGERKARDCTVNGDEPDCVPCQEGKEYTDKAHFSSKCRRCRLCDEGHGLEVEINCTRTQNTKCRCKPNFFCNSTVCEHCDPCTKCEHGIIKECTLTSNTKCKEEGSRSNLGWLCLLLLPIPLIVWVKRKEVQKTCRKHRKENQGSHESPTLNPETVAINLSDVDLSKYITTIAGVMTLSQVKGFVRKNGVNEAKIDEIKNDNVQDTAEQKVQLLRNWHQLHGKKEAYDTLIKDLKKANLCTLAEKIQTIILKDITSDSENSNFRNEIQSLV
Experiment: BLI; Octet Red384; recombinant human FasR; 1:1 Langmuir model; at least in duplicate; who was immobilised is not told (Supplementary Protocols 8-10)
Details: both partners purified
MEASURED_METRIC: koff (s⁻¹)
Enter your answer as a number in s⁻¹; do not include the unit.

{"BINDER": "A09a scFv (scFv, V domains shown, numbers count on: Kabat numbering; scFv linker, as in m6; Selected by BeSD, round IV) VH: QLQLQEPGPGLTKPSETLSLTCTVPGASISADSYYGVWVRQSPGKGLEWVGSIAYRGNSNSGSTYYNPSLKSRATVSVDTSKNQVSLRLTSVTAADTALYYCARRQLLDDGTGYQWAAFDVWGQGTMVTVSS VL: QSVLTQPPSVSEAPRQTVTISCSGNSFNIGRYPVNWYQQLPGKAPKLLIYHNNLRFSGVSDRFSGSKSGTSASLAIRDLLSEDEADYYCSTWDDTLKGWVFGGGTKVTVL", "koff [s⁻¹]": 0.00029}
{"BINDER": "E09 IgG (antibody, V domains shown, VH: as the VH of m6 (E09); IgG heavy constant region; VL: as the VL of m6 (E09); light constant region; IgG; also called parent) VH: QLQLQESGPGLVKPSETLSLTCTVSGASISANSYYGVWVRQSPGKGLEWVGSIAYRGNSNSGSTYYNPSLKSRATVSVDTSKNQVSLRLTSVTAADTALYYCARRQLLDDGTGYQWAAFDVWGQGTMVTVSS VL: QSVLTQPPSVSEAPRQTVTISCSGNSFNIGRYPVNWYQQLPGKAPKLLIYYNNLRFSGVSDRFSGSKSGTSASLAIRDLLSEDEADYYCSTWDDTLKGWVFGGGTKVTVL", "koff [s⁻¹]": 0.00266}
{"BINDER": "anti-Fas receptor scFv E09 (scFv, V domains shown, VH of E09; scFv linker; VL of E09; also called parent; wild-type E09) VH: QLQLQESGPGLVKPSETLSLTCTVSGASISANSYYGVWVRQSPGKGLEWVGSIAYRGNSNSGSTYYNPSLKSRATVSVDTSKNQVSLRLTSVTAADTALYYCARRQLLDDGTGYQWAAFDVWGQGTMVTVSS VL: QSVLTQPPSVSEAPRQTVTISCSGNSFNIGRYPVNWYQQLPGKAPKLLIYYNNLRFSGVSDRFSGSKSGTSASLAIRDLLSEDEADYYCSTWDDTLKGWVFGGGTKVTVL", "koff [s⁻¹]": 0.000956}
{"BINDER": "A03a scFv (scFv, V domains shown, numbers count on: Kabat numbering; scFv linker, as in m6; Selected by BeSD, round IV) VH: QLQLQESGPGLVKPSETLSLTCTVPGASISANSYYGVWVRQSPGRGLEWVGSIAYRGNSNSGSTYYNPSLKSRATVSVDTSKNQVSLRLTSVTAADTALYYCARRRLLDDGTGYQWAAFDNWDQGTMVTVSS VL: QSVLTQSPSVSEAPRQTVTISCSGNSFNTGRYPVNWYQQLPGKAPKLLIYSNNLRLSGVSDRFSGSKSGTSASLAIRDLLSEDEADYYCSTWDDTLEGWVFGGGTKVTVL", "koff [s⁻¹]": 0.000181}
{"BINDER": "A01b scFv (scFv, V domains shown, numbers count on: Kabat numbering; scFv linker, as in m6; Selected by BeSD, round IV) VH: QLQLQESGPGLVKPSETLSLTCTVPGASISANSYYGVWIRQSPGKGLEWVGSIAYRGNSNSGSTYYNPSLKSRATVSVDTSKNRVSLRLTSVTAADTALYYCARRQLLDDGTGYQWAAFDVWGQGTMVTVPS VL: QSVLTQPPSVSEVPRQTVTISCSGNSFNIGRYPVNWYQQLPGKAPKLLIYHNNLRFSGVSDRFSGSKSGTSASLAIRDLLSEDEADYYCSTWDDTLKGWVFGGGTKVTVL", "koff [s⁻¹]": 0.000272}

Next binder, please.
Looking up A11b scFv (scFv, V domains shown, numbers count on: Kabat numbering; scFv linker, as in m6; Selected by BeSD, round IV) VH: QLQLQESGPGLVKPSETLSLTCTVPGASISANSYYGVWVRQSPGKGLEWVGSIAYRGNSNSGSTYYNPSLKSRATVSVDTSKNQVSLRLTSVTAADTALYYCARRQLLDDGTGYQWAAFDVWGQGTMVTVSG VL: QSVLTQPPSVSEAPRQTVTISCSGNSFNTGRYPVNWYQQLPGKAPKLLIYSNNLRLSGVSDRFSGSKSGTSASLAIRDLLSEDEADYYCSTWDDTLEGWVFGGGTKVTVL , I see its koff listed as 0.000111

Where do the numbers come from? From paper PMC5098251.
